Measured mf, listed per entry.
Assay: Folding and unfolding kinetics (Chevron plot, stopped-flow CD, GuHCl)
Type: physicochemical
Settings: slope of ln(kf) vs GuHCl
Enter your answer as a number in M⁻¹; do not include the unit.

Some solved entries appear below for comparison.
SYM5/Δ104-106: SYM5 FGF-1 mutant plus Ala103→Gly/ΔGlu104/ΔLys105/ΔAsn106 (protein, UniProt P05230 16-155, looked up, variant L44F L73V V109L L111I C117V A103G del104-106) Fibroblast growth factor 1: FNLPPGNYKKPKLLYCSNGGHFLRILPDGTVDGTRDRSDQHIQFQLSAESVGEVYIKSTETGQYLAMDTDGLVYGSQTPNEECLFLERLEENHYNTYISKKHGWFLGIKKNGSVKRGPRTHYGQKAILFLPLPVSSD; -3.70
SYM6/Δ120-122: SYM6 FGF-1 mutant plus Arg119→Gly/ΔGly120/ΔPro121/ΔArg122 (protein, UniProt P05230 16-155, looked up, variant L44F M67I L73V V109L L111I C117V R119G del120-122) Fibroblast growth factor 1: FNLPPGNYKKPKLLYCSNGGHFLRILPDGTVDGTRDRSDQHIQFQLSAESVGEVYIKSTETGQYLAIDTDGLVYGSQTPNEECLFLERLEENHYNTYISKKHAEKNWFLGIKKNGSVKGTHYGQKAILFLPLPVSSD; -9.45

We next turn to a different molecule, shown below.
For the molecule SYM6/ΔΔ: SYM6 FGF-1 mutant plus both Δ104-106 and Δ120-122 deletion mutations, SEQ ID NO: 1 (protein, Human FGF-1 mutant SYM6DD) FNLPPGNYKKPKLLYCSNGGHFLRILPDGTVDGTRDRSDQHIQFQLSAESVGEVYIKSTETGQYLAIDTDGLVYGSQTPNEECLFLERLEENHYNTYISKKHGWFLGIKKNGSVKGTHYGQKAILFLPLPVSSD , report mf.
-4.40
